Biological target: DPP-IV activity in rat plasma (Rattus norvegicus)
Construct: from tissue; host or cells: rat plasma
Sequence (P14740 38-767 limits assumed): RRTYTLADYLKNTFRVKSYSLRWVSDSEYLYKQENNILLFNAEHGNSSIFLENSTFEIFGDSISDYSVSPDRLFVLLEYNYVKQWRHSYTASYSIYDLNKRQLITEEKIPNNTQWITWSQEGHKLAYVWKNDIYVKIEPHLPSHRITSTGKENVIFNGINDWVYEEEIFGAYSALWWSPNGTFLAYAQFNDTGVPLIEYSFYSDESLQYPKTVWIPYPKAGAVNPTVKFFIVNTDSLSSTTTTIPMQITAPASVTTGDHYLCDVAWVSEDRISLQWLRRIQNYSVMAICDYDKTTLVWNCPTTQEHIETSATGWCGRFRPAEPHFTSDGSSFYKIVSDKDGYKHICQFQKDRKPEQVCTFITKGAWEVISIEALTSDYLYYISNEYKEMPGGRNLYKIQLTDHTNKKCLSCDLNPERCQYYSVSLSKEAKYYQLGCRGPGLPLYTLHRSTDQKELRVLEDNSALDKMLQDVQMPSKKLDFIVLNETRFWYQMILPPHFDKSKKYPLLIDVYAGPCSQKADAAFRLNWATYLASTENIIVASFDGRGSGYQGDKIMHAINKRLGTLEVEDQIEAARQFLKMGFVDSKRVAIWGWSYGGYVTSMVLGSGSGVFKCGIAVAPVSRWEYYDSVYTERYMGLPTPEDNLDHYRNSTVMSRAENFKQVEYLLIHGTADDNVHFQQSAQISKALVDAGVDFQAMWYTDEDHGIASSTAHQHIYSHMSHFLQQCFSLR
Test: Rat plasma DPP-IV assay
Assay type: biochemical
Conditions: substrate H-Gly-Pro-AMC

Chemical Structure | IC50 [nM]
CC(C)(CNc1ccc(C(F)(F)F)cn1)NCC(=O)N1CCC[C@H]1C#N | 11
N#C[C@@H]1CCCN1C(=O)CN[C@H]1CC[C@H](Oc2cccc(Cl)c2)CC1 | 10
N#C[C@@H]1CCCN1C(=O)CN[C@H]1CC[C@H](Oc2cccc(C(F)(F)F)c2)CC1 | 10
CC(C)(CNC(=O)Nc1ccc(Cl)cc1)NCC(=O)N1CCC[C@H]1C#N | 38
CC(C)N(C(=O)N1CCC(NCC(=O)N2CCC[C@H]2C#N)CC1)C(C)C | 5
N#C[C@@H]1CCCN1C(=O)CNC1CCN(C(=O)c2ccc(Cl)cc2)CC1 | 31
N#C[C@@H]1CCCN1C(=O)CN[C@H]1CC[C@H](Nc2nccc(C(F)(F)F)n2)CC1 | 9
CC(C)N(C(=O)NCC(C)(C)NCC(=O)N1CCC[C@H]1C#N)C(C)C | 49
N#C[C@@H]1CCCN1C(=O)CN[C@H]1CC[C@H](NC(=O)c2ccc(Cl)cc2)CC1 | 37
N#C[C@@H]1CCCN1C(=O)CNC1CCN(c2nc(-c3ccccc3)cs2)CC1 | 12
CC(C)(CNc1ncccc1C(F)(F)F)NCC(=O)N1CCC[C@H]1C#N | 111
N#C[C@@H]1CCCN1C(=O)CNC1CCN(C(=O)Nc2ccc(Cl)cc2)CC1 | 12
N#C[C@@H]1CCCN1C(=O)CN[C@H]1CC[C@H](NS(=O)(=O)c2ccc(Cl)cc2)CC1 | 38
N#C[C@@H]1CCCN1C(=O)CNC1CCN(S(=O)(=O)c2ccccc2)CC1 | 59
CC(C)(Cc1ccc(F)cc1)NCC(=O)N1CCC[C@H]1C#N | 13
